Data origin: patent US9212182B2

Property: IC50; scope: individual compounds
EXPERIMENTAL SYSTEM: Nav 1.7 (Homo sapiens (Human))
PROTOCOL: in-vitro Nav 1.7 PX (IC50)
Assay type: cell-based
CONDITIONS USED: in-vitro Nav 1.7 PX data
QUANTITY: IC50 (µM)

| COMPOUND | ASSAY VALUE |
| --- | --- |
| COc1cc(-c2ccc(F)c(F)c2)ccc1-n1c(=O)ccc2cc(S(=O)(=O)Nc3ncccn3)ccc21 [Example 897] | 0.1 |
| COc1cc(-c2cc(C)cc(C)c2)ccc1-n1c(=O)ccc2cc(S(=O)(=O)Nc3ccon3)ccc21 [Example 1016] | 0.011 |
| COc1cc(-c2ccc(C)c(F)c2)c(F)cc1-n1c(=O)ccc2cc(S(=O)(=O)Nc3cccnn3)ccc21 [Example 1128] | 0.036 |

====

Examples of compounds with documented IC50 follow.
EXPERIMENTAL SYSTEM: Nav 1.7 (Homo sapiens (Human), UniProt Q15858)
Sequence (Q15858 whole entry): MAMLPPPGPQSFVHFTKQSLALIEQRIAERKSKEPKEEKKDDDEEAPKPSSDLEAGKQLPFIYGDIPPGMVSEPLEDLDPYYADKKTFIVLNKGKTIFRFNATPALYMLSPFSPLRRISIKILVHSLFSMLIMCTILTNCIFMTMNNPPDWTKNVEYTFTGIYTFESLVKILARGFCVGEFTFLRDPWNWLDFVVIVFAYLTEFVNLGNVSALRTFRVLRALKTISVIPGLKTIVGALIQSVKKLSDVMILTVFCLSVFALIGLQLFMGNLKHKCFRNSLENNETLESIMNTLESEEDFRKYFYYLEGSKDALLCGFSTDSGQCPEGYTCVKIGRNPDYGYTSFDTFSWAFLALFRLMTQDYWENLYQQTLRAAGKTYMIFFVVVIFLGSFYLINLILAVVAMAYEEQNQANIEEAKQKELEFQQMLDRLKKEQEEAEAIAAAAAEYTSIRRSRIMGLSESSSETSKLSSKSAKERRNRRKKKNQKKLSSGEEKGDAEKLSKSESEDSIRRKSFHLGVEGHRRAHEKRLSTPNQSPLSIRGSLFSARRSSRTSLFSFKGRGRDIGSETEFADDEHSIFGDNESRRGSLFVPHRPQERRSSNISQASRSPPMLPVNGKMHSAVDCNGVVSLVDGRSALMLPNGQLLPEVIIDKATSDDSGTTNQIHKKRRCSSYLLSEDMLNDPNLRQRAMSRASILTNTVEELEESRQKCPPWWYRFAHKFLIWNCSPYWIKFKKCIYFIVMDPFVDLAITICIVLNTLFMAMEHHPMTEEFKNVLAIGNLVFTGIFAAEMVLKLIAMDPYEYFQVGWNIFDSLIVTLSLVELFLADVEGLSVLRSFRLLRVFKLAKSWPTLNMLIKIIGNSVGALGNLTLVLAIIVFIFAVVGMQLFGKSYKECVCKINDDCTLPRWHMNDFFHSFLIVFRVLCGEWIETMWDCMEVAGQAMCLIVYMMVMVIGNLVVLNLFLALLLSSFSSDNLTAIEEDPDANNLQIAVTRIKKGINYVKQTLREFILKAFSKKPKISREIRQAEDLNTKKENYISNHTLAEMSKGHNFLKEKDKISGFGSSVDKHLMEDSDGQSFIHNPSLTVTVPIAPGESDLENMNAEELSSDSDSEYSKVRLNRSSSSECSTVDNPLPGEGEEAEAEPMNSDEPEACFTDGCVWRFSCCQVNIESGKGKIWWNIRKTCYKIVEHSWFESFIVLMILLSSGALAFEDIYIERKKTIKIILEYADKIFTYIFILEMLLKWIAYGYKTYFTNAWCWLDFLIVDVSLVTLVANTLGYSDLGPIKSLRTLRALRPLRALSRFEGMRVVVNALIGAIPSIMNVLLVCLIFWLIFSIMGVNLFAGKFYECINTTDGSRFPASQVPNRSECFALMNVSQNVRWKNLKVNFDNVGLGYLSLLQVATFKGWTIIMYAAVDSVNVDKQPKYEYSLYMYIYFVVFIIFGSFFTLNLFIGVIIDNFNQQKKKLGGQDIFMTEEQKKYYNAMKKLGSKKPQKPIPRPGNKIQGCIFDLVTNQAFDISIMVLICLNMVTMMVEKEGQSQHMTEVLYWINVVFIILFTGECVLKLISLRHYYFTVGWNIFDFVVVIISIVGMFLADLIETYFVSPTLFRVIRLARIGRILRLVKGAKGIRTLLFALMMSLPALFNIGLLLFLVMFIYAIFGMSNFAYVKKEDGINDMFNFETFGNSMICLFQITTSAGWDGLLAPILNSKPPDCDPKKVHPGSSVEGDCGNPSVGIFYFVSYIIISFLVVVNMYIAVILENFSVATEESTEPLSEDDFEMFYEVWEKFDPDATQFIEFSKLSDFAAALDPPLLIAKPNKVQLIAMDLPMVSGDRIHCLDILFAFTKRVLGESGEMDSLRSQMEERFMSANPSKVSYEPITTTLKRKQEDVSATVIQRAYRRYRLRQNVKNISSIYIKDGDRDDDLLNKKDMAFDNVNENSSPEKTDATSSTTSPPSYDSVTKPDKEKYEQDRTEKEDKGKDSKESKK
PROTOCOL: in-vitro Nav 1.7 PX (IC50)
Format: cell-based
CONDITIONS USED: in-vitro PatchXpress (PX)
QUANTITY: IC50 (µM)

| COMPOUND | READOUT UNITS | QUALIFIER SIGN | ASSAY VALUE |
| --- | --- | --- | --- |
| COc1cc(-c2cnc(C)c(Cl)c2)c(F)cc1-n1c(=O)ccc2cc(S(=O)(=O)Nc3ccon3)ccc21 [Example 532] | µM | = | 0.282 |
| COc1nc(N2CC(F)(F)C2)c(Cl)cc1-n1c(=O)ccc2cc(S(=O)(=O)Nc3ccon3)ccc21 [Example 342] | µM | = | 1.64 |
| COc1cc(-c2cc(F)c(F)cc2F)c(F)cc1-n1c(=O)ccc2cc(S(=O)(=O)Nc3ccon3)ccc21 (atropisomer, axis not shown; (P)) [Example 516] | µM | > | 10 |
| COc1cc(-c2cc(F)cc(Cl)c2)ccc1-n1c(=O)ccc2cc(S(=O)(=O)Nc3cccnn3)ccc21 (atropisomer, axis not shown; (P)) [Example 480] | µM | = | 0.008 |
| COc1cc(-c2ccc(Cl)c(F)c2)c(F)cc1-n1c(=O)ccc2cc(S(=O)(=O)Nc3ccon3)ccc21 (atropisomer, axis not shown; (P)) [Example 503] | µM | = | 1.1 |
| COc1cc(-c2ccc(C)c(C#N)c2)c(F)cc1-n1c(=O)ccc2cc(S(=O)(=O)Nc3ccon3)ccc21 (atropisomer, axis not shown; (P)) [Example 524] | µM | = | 0.025 |
| COc1cc(-c2ccc(Cl)c(F)c2)c(F)cc1-n1c(=O)ccc2cc(S(=O)(=O)Nc3ccon3)ccc21 (atropisomer, axis not shown; (M)) [Example 504] | µM | = | 0.008 |
| COc1cc(-c2cccc(C(F)(F)F)c2)ccc1-n1c(=O)ccc2cc(S(=O)(=O)Nc3cccnn3)ccc21 (atropisomer, axis not shown; (M)) [Example 370] | µM | = | 2.43 |
| COc1cc(-c2cc(C)cc(Cl)c2)c(F)cc1-n1c(=O)ccc2cc(S(=O)(=O)Nc3ccon3)ccc21 (atropisomer, axis not shown; (P)) [Example 506] | µM | = | 0.008 |
| COc1cc(-c2cncc(Cl)c2)c(F)cc1-n1c(=O)ccc2cc(S(=O)(=O)Nc3ccon3)ccc21 [Example 407] | µM | = | 0.158 |
| COc1cc(-c2cnn(C)c2)c(F)cc1-n1c(=O)ccc2cc(S(=O)(=O)Nc3ccon3)ccc21 [Example 405] | µM | = | 14.6 |
| COc1cc(-c2ccc(C#N)c(Cl)c2)c(F)cc1-n1c(=O)ccc2cc(S(=O)(=O)Nc3ccon3)ccc21 (atropisomer, axis not shown; (P)) [Example 520] | µM | = | 0.026 |
| COc1cc(-c2cc(F)c(F)cc2F)c(F)cc1-n1c(=O)ccc2cc(S(=O)(=O)Nc3ccon3)ccc21 (atropisomer, axis not shown; (M)) [Example 517] | µM | = | 0.021 |

====

EXPERIMENTAL SYSTEM: Nav 1.7 (Homo sapiens (Human))
PROTOCOL: in-vitro Nav 1.7 PX (IC50)
Type: cell-based
CONDITIONS USED: in-vitro Nav 1.7 PX data
QUANTITY: IC50

| SMILES | QUANTITY | ASSAY VALUE |
| --- | --- | --- |
| COc1cc(C[C@@H]2CCOC2)c(F)cc1-n1c(=O)ccc2cc(S(=O)(=O)Nc3ccon3)ccc21 | IC50 | 1600 nM |
| COc1cc(C)cc(-c2ccc(-n3c(=O)ccc4cc(S(=O)(=O)Nc5ccon5)ccc43)c(OC)c2)c1 | IC50 | 20 nM |
| COc1cc(F)ccc1-c1cc(OC)c(-n2c(=O)ccc3cc(S(=O)(=O)Nc4ccon4)ccc32)cc1F | IC50 | 71 nM |
| COc1cc(-c2cc(Cl)ccc2F)c(F)cc1-n1c(=O)ccc2cc(S(=O)(=O)Nc3ccon3)ccc21 | IC50 | 12 nM |
| COc1cc(-c2ccc(-n3c(=O)ccc4cc(S(=O)(=O)Nc5ccon5)ccc43)c(OC)c2)ccc1F | IC50 | 80 nM |
| COc1cc(-c2cccc(C3CC3)c2)ccc1-n1c(=O)ccc2cc(S(=O)(=O)Nc3ccon3)ccc21 | IC50 | 6 nM |
| COc1cc(-c2cc(F)cc(C(F)(F)F)c2)ccc1-n1c(=O)ccc2cc(S(=O)(=O)Nc3ncccn3)ccc21 | IC50 | 50 nM |

====

EXPERIMENTAL SYSTEM: Nav 1.7 (Homo sapiens (Human))
PROTOCOL: in-vitro Nav 1.7 PX (IC50)
Format: cell-based
CONDITIONS USED: in-vitro Nav 1.7 PX data

| COMPOUND | IC50 |
| --- | --- |
| COc1cc(CC2CCCCC2)c(F)cc1-n1c(=O)ccc2cc(S(=O)(=O)Nc3cccnn3)ccc21 | 25 nM |
| COc1cc(-c2ccc(C(F)(F)F)cc2)c(F)cc1-n1c(=O)ccc2cc(S(=O)(=O)Nc3cc(C)ncn3)ccc21 | 49 nM |
| COc1cc(-c2ccc(OC)c(-n3c(=O)ccc4cc(S(=O)(=O)Nc5ccon5)ccc43)c2)ccc1Cl | 23 nM |
| COc1cc(F)cc(-c2ccc(-n3c(=O)ccc4cc(S(=O)(=O)Nc5cc(C)ncn5)ccc43)c(OC)c2)c1 | 219 nM |
| COc1cc(-c2cc(Cl)cnc2OC)c(F)cc1-n1c(=O)ccc2cc(S(=O)(=O)Nc3cccnn3)ccc21 | 47 nM |
| COc1cc(-c2cccc3c2OCC3)ccc1-n1c(=O)ccc2cc(S(=O)(=O)Nc3ccon3)ccc21 | 89 nM |
| COc1cc(-c2cccc(C(F)(F)F)c2)ccc1-n1c(=O)ccc2cc(S(=O)(=O)Nc3ccc(F)cn3)ccc21 | 93 nM |
| COc1ccc(-c2cccc(Cl)c2)cc1-n1c(=O)ccc2cc(S(=O)(=O)Nc3ccon3)ccc21 [Example 852] | 22 nM |
| COc1ccc(-c2cccc(F)c2)cc1-n1c(=O)ccc2cc(S(=O)(=O)Nc3ncccn3)ccc21 (atropisomer, axis not shown; (P)) | 159 nM |
| COc1cc(-c2ccc(C(F)(F)F)cc2)c(F)cc1-n1c(=O)ccc2cc(S(=O)(=O)Nc3cccnn3)ccc21 | 31 nM |
| COc1ccc(-c2cccc(Cl)c2C)cc1-n1c(=O)ccc2cc(S(=O)(=O)Nc3ccon3)ccc21 [Example 895] | 1840 nM |
| COc1cc(F)cc(-c2ccc(-n3c(=O)ccc4cc(S(=O)(=O)Nc5ncco5)ccc43)c(OC)c2)c1 | 268 nM |

====

Some compounds, each annotated with its measured IC50.
EXPERIMENTAL SYSTEM: Nav 1.7 (Homo sapiens (Human), UniProt Q15858)
PROTOCOL: in-vitro Nav 1.7 PX (IC50)
Assay type: cell-based

| COMPOUND | IC50 |
| --- | --- |
| COc1cnc(-c2cc(Cl)ccc2F)cc1-n1c(=O)ccc2cc(S(=O)(=O)Nc3ccon3)ccc21 [Example 1169] | 805 nM |
| COc1cc(Br)ccc1-n1c(=O)ccc2cc(S(=O)(=O)Nc3ccon3)ccc21 (atropisomer, axis not shown; (P)) [Example 574] | 772 nM |
| COc1nc(OCC(F)(F)C2CCOCC2)c(Cl)cc1-n1c(=O)ccc2cc(S(=O)(=O)Nc3ccon3)ccc21 [Example 1211] | 793 nM |

====

As shown below, each of these compounds has a reported IC50 value.
EXPERIMENTAL SYSTEM: Nav 1.7 (Homo sapiens (Human), UniProt Q15858)
PROTOCOL: in-vitro Nav 1.7 PX (IC50)
Type: cell-based
CONDITIONS USED: in-vitro PatchXpress (PX)

| COMPOUND | IC50 |
| --- | --- |
| COc1cc(-c2cc(C)cc(Cl)c2)c(F)cc1-n1c(=O)ccc2cc(S(=O)(=O)Nc3ccon3)ccc21 (atropisomer, axis not shown; (M)) [Example 507] | 1.01 µM |
| COc1cc(-c2cncc(Cl)c2)c(F)cc1-n1c(=O)ccc2cc(S(=O)(=O)Nc3ccon3)ccc21 (atropisomer, axis not shown; (P)) [Example 408] | 8.04 µM |
| COc1nc(-c2ccc(Cl)c(C)c2)c(Cl)cc1-n1c(=O)ccc2cc(S(=O)(=O)Nc3ccon3)ccc21 [Example 448] | 0.115 µM |
| COc1cc(-c2ccc(Cl)c(C#N)c2)c(F)cc1-n1c(=O)ccc2cc(S(=O)(=O)Nc3ccon3)ccc21 (atropisomer, axis not shown; (M)) [Example 509] | 1.68 µM |
| COc1cc(Cl)cc(-c2cc(OC)c(-n3c(=O)ccc4cc(S(=O)(=O)Nc5ccon5)ccc43)cc2F)c1 (atropisomer, axis not shown; (P)) [Example 501] | 0.004 µM |
| COc1cc(N2CC(F)(F)C2)c(F)cc1-n1c(=O)ccc2cc(S(=O)(=O)Nc3ccon3)ccc21 [Example 406] | 1 µM |
| COc1cc(-c2ccc(C)c(Cl)c2)c(F)cc1-n1c(=O)ccc2cc(S(=O)(=O)Nc3ccon3)ccc21 (atropisomer, axis not shown; (M)) [Example 529] | 3.15 µM |
